System: HOP-92
Method Description: NCI tumour cell line growth inhibition, 48 h
Where a name gives a salt, the structure may show the parent alone. Activity calls are given as the source filed them. Cut-off read from the data, not from the text of the source: active = GI50 up to about 1.1 µM and inactive = higher.

Molecule: S=C1SC(c2ccc(Cl)cc2)(c2ccc(Cl)cc2)c2ccccc21
GI50: 44.4 µM (inactive)
--
Molecule: CCCCCNC1=CC(=O)c2ccccc2C1=O
GI50: 17.4 µM (inactive)
--
Molecule: Cc1c2ccncc2cc2c1sc1ccncc12
GI50: 8.22 µM (inactive)
--
Molecule: O=C(/C(Cl)=C/c1ccccc1)c1ccccc1
GI50: 3.13 µM (inactive)
--
Molecule: CN(C)/C=N/Cc1ccc2c(c1)OCO2
GI50: > 100 µM (inactive)
--
Molecule: c1ccc(NN/N=N/c2ccc(-c3nc4ccccc4[nH]3)cc2)cc1
GI50: 60.7 µM (inactive)
--
Molecule: CCOC(=O)Cc1nc2c(N)ncnc2n1C1OC(COC(C)=O)C(OC(C)=O)C1OC(C)=O (configuration not stated)
GI50: 83.9 µM (inactive)
--
Molecule: COc1cc(/C=C/C(=O)OC[C@]23O[C@H]2[C@@H](OC2OC(C)C(O)C(O)C2O)C2C=CO[C@@H](OC4OC(CO)C(O)C(O)C4O)C23)ccc1O (some centres not stated)
GI50: > 100 µM (inactive)
--
Molecule: COC[C@@H](/N=C/C(C)(C)C)C(C)C
GI50: > 100 µM (inactive)
--
Molecule: Oc1[nH]c(Nc2cc(Cl)cc(Cl)c2)nc2ncnc1-2
GI50: > 75 µM (inactive)
--
Molecule: CC/C(=C(\c1ccccc1)c1ccc(OCCN(C)C)cc1)c1ccccc1 [TAMOXIFEN CITRATE]
GI50: 4.57 µM (inactive)
--
Molecule: O=C(CC(=O)c1ccncc1)c1ccccc1
GI50: > 87.1 µM (inactive)
